Where do these numbers come from? They come from the nanobody polyreactivity screen of Harvey et al. (2022).

- procedure text: yeast display, Sf9 membrane polyspecificity reagent, FACS + sequencing; frameworks hold sequencing errors
parameter measured: polyreactivity (PSR sort gate)

Sample records with polyreactivity (PSR sort gate):
QVQLVESGGGLVQAGGSLRLSCAASGITLKRYAMGWYRQAPGKERELVAAITGRGGGTNYADSVKGRFTISRDNAKNTVYLQMNSLKPEDTAVYYCTAATYGDYSNLGYGYWGQGTQVTVSS : high polyreactivity
QVQLVESGGGLVQAGGSLRLSCAASGSIFEGNGMGRYRQAPGKERELVAAITFRSGSTYYADSVKGRFTISRDNAKNTVYLQMNSLKPEDTAVYYCAADEYYQVSAYDYWGQGTQVNVSS : low polyreactivity
QVQLLESGGGLVQAGGCLRLSCAASGSIFYPYALGGYRQAPGIVRELVAAISSREGRSYYADSVKGRFTISRDNGKKTVYLQMNSLKPEDTAVYYCAACSFNYGHRFYWGQGSQVTVSS : high polyreactivity
QVQLVESGGGLVQAGGSLRLSSAASGSTFLRYAMGWYRQAPGKERELVAAISYSGGSTYYADSVKGRFTISRDNAKNTVYLQMNSLIPQDTAVNYCNAGVFANDNGGRRDHFTWEYEYWGQGTQVTVSS : low polyreactivity
QVQLVESGGGLVQAGGSLRLSCAASGVIFYRNAMGWYRQAPGKERELVATIRYSGGSTYYADSVKGRFTISRDNAKNTVYLEMNSLKPEDSAVYYCNARRWYLPRRSGYGYWGQGTVVTVSS : high polyreactivity
QVQLVESGGGLVQAGGSLRLSCAASGGIFDTYAMGWYRQAPGKERELVAAISRRGGNTYYADSVKGRFTISRDNAKNTVYLQMNSLKPEDTAVYYCAAYYHGRMDYWGQGTQVTVSS : high polyreactivity
QVQLVESGGGLVQEGGSLRLICAASGGIFIYNAMGWYRQEPGKEREFVAAINISGGNTYYADSVKGRFTISRDNAKNTVYLQMNSLKPEDTAVYYCAARYASSWWIRYYYWGQGTQVSVSS : high polyreactivity
QVQLVESGGGLVQAGGSLRLSCAASGSIFYWYAMGWYRQAPGKERELVAAISRNGGNTYYADSVKGRFTISRDNAKNTVYLQMNSLKPEDTAVYYCAVAGTVLSHMGYWGQGTQVTVSS : low polyreactivity
QVQLVESGGGLVQAGGSLRLSCAASGFTSGYNAMGWYRQAPGKERELVATITRGTRTYYADSVKGRFTISRDNAKNTVYLQMNSLKPEDTAVYYCNARVYYKTYGGYYSWGQGTQVTVSS : high polyreactivity
QGQLVESAGGLVQAGGSLRLSCAASGSTFDYYTIGWYRQAPGKERELVAAISSSGGSTYYADSVKGRFTISRANAKNTVYLQMNSLKPVDTAVYYCAAKWDWGYGRGFQYGFNYWGQGTQVTVSS : low polyreactivity

Q: Which polyreactivity (PSR sort gate) value belongs to QVQLVESGGGLVQAGGSLRLSCAASGFIFRGNAMGWYRQAPGKERELVAAISKSGGRTYYADSVKGRFTISRDNAKNTVYLQMNSLKPEDTAVYYCNVLRLGLGRESDSWGQGTQVTVSS ?
A: high polyreactivity
